- Experimental target: Tubulin
- Test protocol: Inhibition of tubulin (unknown origin) polymerization measured for 1 hr by fluorescence assay
Readout type: pIC50
Notebook: values listed as pIC50 are -log10 of the concentration (mol/L).

| Compound | pIC50 |
| --- | --- |
| O=C1OCC2=C1C(c1ccc(-c3ccc(-c4ccc(OC(F)(F)F)cc4)cc3)cc1)c1c(ccc3cn[nH]c13)N2 (configuration not stated) | 5.53 |

Pending compound:
Challenge: Please state recorded pIC50 (tested on Tubulin) of O=C1OCC2=C1C(c1ccc(-c3ccc(-c4cc(F)cc(F)c4)cc3)cc1)c1c(ccc3cn[nH]c13)N2 (configuration not stated)
Response given: 5.56

----------
Catalogue of compounds with associated IC50
- Tested on: A549
- Test protocol: Anticancer activity against human A549 cells after 48 hrs by MTT assay
- Format: functional, cell-based
- Measurement setup: A549, 48 h
A complete answer gives the number followed by the unit.

In the examples that follow, each entry is paired with its recorded IC50.
| Compound | IC50 |
| --- | --- |
| O=C1OCC2=C1C(c1ccc(-c3ccc(-c4cc(F)c(F)c(F)c4)cc3)cc1)c1c(-c3ccccc3)n[nH]c1N2 (stereo not given) | 4.36 µM |
| O=C1OCC2=C1C(c1ccc(-c3ccc(-c4ccc(C(F)(F)F)cc4)cc3)cc1)c1c(ccc3cn[nH]c13)N2 (stereo not given) | 1.16 µM |
| O=C1OCC2=C1C(c1ccc(-c3ccc(-c4ccc(OC(F)(F)F)cc4)cc3)cc1)c1c(-c3ccccc3)n[nH]c1N2 (stereo not given) | 0.98 µM |
| O=C1OCC2=C1C(c1ccc(-c3ccc(-c4ccc(C(F)(F)F)cc4)cc3)cc1)c1c(-c3ccccc3)n[nH]c1N2 (stereo not given) | 5.75 µM |
| COc1cc([C@@H]2c3cc4c(cc3[C@@H](O[C@@H]3O[C@@H]5CO[C@@H](C)O[C@H]5[C@H](O)[C@H]3O)[C@H]3COC(=O)[C@H]23)OCO4)cc(OC)c1O [ETOPOSIDE] | 2.45 µM |

Challenge: What does the data say about its IC50? Entry: COc1cc([C@@H]2c3cc4c(cc3[C@H](O)[C@H]3COC(=O)[C@H]23)OCO4)cc(OC)c1OC [PODOFILOX]
Response given: 3.09 µM

Challenge: Same for O=C1OCC2=C1C(c1ccc(-c3ccc(-c4ccc(F)cc4)cc3)cc1)c1cc3[nH]ccc3cc1N2 (stereo not given)
Response given: 4.36 µM

Challenge: Also need O=C1OCC2=C1C(c1ccc(-c3ccc(-c4cc(F)cc(Cl)c4)cc3)cc1)c1c(-c3ccccc3)n[nH]c1N2 (stereo not given) , thanks.
Response given: 2.88 µM

----------
Some molecules, each annotated with its measured IC50.
- Test system: A549
- Test protocol: Anticancer activity against human A549 cells after 48 hrs by MTT assay
- Format: functional, cell-based
- Measurement setup: A549, 48 h
Don't forget the unit after the number, please.

| Molecule | Experimental target | IC50 |
| --- | --- | --- |
| O=C1OCC2=C1C(c1ccc(-c3ccc(-c4cc(F)c(F)c(F)c4)cc3)cc1)c1c(ccc3cn[nH]c13)N2 (configuration not stated) | A549 | 3.98 µM |
| O=C1OCC2=C1C(c1ccc(-c3ccc(-c4cc(F)cc(Cl)c4)cc3)cc1)c1c(ccc3cn[nH]c13)N2 (configuration not stated) | A549 | 7.41 µM |
| O=C1OCC2=C1C(c1ccc(-c3ccc(-c4ccc(F)cc4)cc3)cc1)c1c(-c3ccccc3)n[nH]c1N2 (configuration not stated) | A549 | 1.47 µM |
| O=C1OCC2=C1C(c1ccc(-c3ccc(-c4cc(F)cc(F)c4)cc3)cc1)c1c(-c3ccccc3)n[nH]c1N2 (configuration not stated) | A549 | 6.72 µM |
| O=C1OCC2=C1C(c1ccc(-c3ccc(-c4cc(F)cc(F)c4)cc3)cc1)c1c(ccc3cn[nH]c13)N2 (configuration not stated) | A549 | 0.91 µM |

Challenge: Test system A549; read-out IC50; what value for O=C1OCC2=C1C(c1ccc(-c3ccc(-c4cc(F)cc(Cl)c4)cc3)cc1)c1cc3[nH]ccc3cc1N2 (configuration not stated) ?
Response given: 2.55 µM

Challenge: One more molecule: O=C1OCC2=C1C(c1ccc(-c3ccc(-c4ccc(OC(F)(F)F)cc4)cc3)cc1)c1c(ccc3cn[nH]c13)N2 (configuration not stated)
Response given: 0.87 µM

Challenge: What about this molecule? O=C1OCC2=C1C(c1ccc(-c3ccc(-c4ccc(OC(F)(F)F)cc4)cc3)cc1)c1cc3[nH]ccc3cc1N2 (configuration not stated)
Response given: 5.12 µM

Challenge: For O=C1OCC2=C1C(c1ccc(-c3ccc(-c4ccc(F)cc4)cc3)cc1)c1c(ccc3cn[nH]c13)N2 (configuration not stated) then?
Response given: 0.95 µM

Challenge: Please give the result for O=C1OCC2=C1C(c1ccc(-c3ccc(-c4ccc(C(F)(F)F)cc4)cc3)cc1)c1cc3[nH]ccc3cc1N2 (configuration not stated) too.
Response given: 10 µM

Challenge: Try this molecule next: O=C1OCC2=C1C(c1ccc(-c3ccc(-c4cc(F)cc(F)c4)cc3)cc1)c1cc3[nH]ccc3cc1N2 (configuration not stated)
Response given: 5.49 µM

Challenge: Also, O=C1OCC2=C1C(c1ccc(-c3ccc(-c4cc(F)c(F)c(F)c4)cc3)cc1)c1cc3[nH]ccc3cc1N2 (configuration not stated) please.
Response given: 5.49 µM
